System: HEK-293T
METHOD NOTES: Incucyte cell viability with HEK293T; further: unitless GR value; below 1 slowed growth and below 0 cell loss
Assay type: toxicity, cell-based
STUDY CONDITIONS: human, 6 h, 10 µM, compound concentration 10 uM, replicate number 2
As shown below, each of these molecules has a reported Growth Rate value.

- MOLECULE: "C[C@@H]1CC[C@@]2(OC1)O[C@H]1[C@@H](O)[C@H]3[C@@H]4CC[C@H]5C[C@@H](O[C@@H]6O[C@H](CO)[C@H](O[C@@H]7O[C@H](CO)C(O)[C@H](O[C@@H]8OC[C@@H](O)[C@H](O)[C@H]8O)[C@H]7O[C@@H]7O[C@H](CO)[C@H](O)[C@H](O[C@@H]8O[C@H](CO)[C@@H](O)[C@H](O)[C@H]8O)[C@H]7O)[C@H](O)[C@H]6O)[C@H](O)C[C@]5(C)[C@H]4CC[C@]3(C)[C@H]1[C@@H]2C (some centres not stated) [DIGITONIN]"
  Growth Rate: 0.94
- MOLECULE: "[2H]C([2H])([2H])NC(=O)c1nnc(NC(=O)C2CC2)cc1Nc1cccc(-c2ncn(C)n2)c1OC [DEUCRAVACITINIB]"
  Growth Rate: 0.51
- MOLECULE: "CC(C)(C[C@H]1CN(S(=O)(=O)c2cccc(C(F)(F)F)c2)c2cc(-c3cc(F)cc(OC(F)F)c3)ccc2O1)C(=O)O [CINTIRORGON]"
  Growth Rate: 0.81
- MOLECULE: "c1cnc2cc3c(cc2n1)[C@@H]1CNC[C@H]3C1 [VARENICLINE]"
  Growth Rate: 0.78
- MOLECULE: "Cn1ncnc1COc1nn2c(-c3cc(F)ccc3F)nnc2cc1C(C)(C)C"
  Growth Rate: 0.37
- MOLECULE: "CC(C)Nc1ncnc2cc(OCc3cccc([S@@](C)(=N)=O)c3)c(Br)cc12"
  Growth Rate: 0.3
- MOLECULE: "O=C(Nc1cc(C(F)(F)F)cc(C(F)(F)F)c1)c1cc(Cl)ccc1O [IMD-0354]"
  Growth Rate: -0.86
- MOLECULE: "CC(=O)c1c(C)c2cnc(Nc3ccn(C)n3)nc2n(C2CCCC2)c1=O"
  Growth Rate: 0.76
- MOLECULE: "O=C(Nc1ccc(OC(F)(F)Cl)cc1)c1cnc(N2CC[C@@H](O)C2)c(-c2ccn[nH]2)c1 [ASCIMINIB]"
  Growth Rate: -0.37
- MOLECULE: "CN[C@@H](C)C(=O)N[C@H](C(=O)N1CCC[C@H]1C(=O)Nc1snnc1-c1ccccc1)C1CCCCC1 [GDC-0152]"
  Growth Rate: -0.14
- MOLECULE: "COc1c(-c2cn(C3CCC(=O)NC3=O)nn2)csc1C(=O)N1CCCC1 (configuration not stated)"
  Growth Rate: 0.71
- MOLECULE: "O=C(NC1CCNCC1)c1n[nH]cc1NC(=O)c1c(Cl)cccc1Cl [AT-7519]"
  Growth Rate: -0.74
- MOLECULE: "CCc1ccc(-c2ncn(CC3(F)CCN(C)CC3)c2-c2ccnc3[nH]ccc23)nc1"
  Growth Rate: 0.08
- MOLECULE: "Cc1nc2ccc(Oc3ccc(F)cc3)cc2c(=O)n1C[C@H]1CCCN(C(C)C)C1.Cl"
  Growth Rate: 0.87
- MOLECULE: "COc1ccc(-n2nc(C(F)(F)F)cc2-c2ccc(Cl)cc2)cc1 [SC-560]"
  Growth Rate: 0.8
- MOLECULE: "CCN1CCN(Cc2ccc(C(=O)Nc3ccc(C)c(Oc4ccc5c(c4)CC(=O)N5)c3)cc2C(F)(F)F)CC1.Cl.Cl"
  Growth Rate: -0.1
- MOLECULE: "Clc1ccc(-c2nc3sccn3c2/C=N/OCc2ccc(Cl)c(Cl)c2)cc1"
  Growth Rate: 1
